- SYSTEM NAME: HLA-A*68:02
- EXPERIMENT NOTES: IEDB peptide-MHC binding, purified MHC/direct/fluorescence; filed as Kd, often an IC50 or EC50 that approximates it; bounds were set here for any values at or beyond the usual limits of such assays
- MEASUREMENT SETUP: source organism: Araucaria virus
pKd: −log10 of the molar value.
The reader will find reported pKd values listed item by item below.

[
  {
    "SEQUENCE RECORD": "GFAIPIILK",
    "pKd": "≤ 4.70"
  },
  {
    "SEQUENCE RECORD": "LYVAGVPEL",
    "pKd": "≤ 4.70"
  }
]
